TEST TARGET: GABAA receptor α1β2γ2 (Homo sapiens, UniProt P14867+P47870)
Sequence (P14867 28-456): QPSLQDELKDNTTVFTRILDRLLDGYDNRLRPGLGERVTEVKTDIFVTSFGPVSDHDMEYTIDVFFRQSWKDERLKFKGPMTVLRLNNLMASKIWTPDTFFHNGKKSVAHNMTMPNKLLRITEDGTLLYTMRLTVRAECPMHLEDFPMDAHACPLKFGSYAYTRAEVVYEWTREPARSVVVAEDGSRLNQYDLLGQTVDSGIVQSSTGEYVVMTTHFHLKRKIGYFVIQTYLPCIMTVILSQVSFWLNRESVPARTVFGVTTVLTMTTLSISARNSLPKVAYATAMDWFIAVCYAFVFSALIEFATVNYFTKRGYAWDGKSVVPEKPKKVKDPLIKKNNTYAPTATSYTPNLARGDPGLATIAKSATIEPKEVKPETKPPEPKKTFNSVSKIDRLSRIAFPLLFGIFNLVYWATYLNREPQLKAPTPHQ
Sequence (P47870 26-512): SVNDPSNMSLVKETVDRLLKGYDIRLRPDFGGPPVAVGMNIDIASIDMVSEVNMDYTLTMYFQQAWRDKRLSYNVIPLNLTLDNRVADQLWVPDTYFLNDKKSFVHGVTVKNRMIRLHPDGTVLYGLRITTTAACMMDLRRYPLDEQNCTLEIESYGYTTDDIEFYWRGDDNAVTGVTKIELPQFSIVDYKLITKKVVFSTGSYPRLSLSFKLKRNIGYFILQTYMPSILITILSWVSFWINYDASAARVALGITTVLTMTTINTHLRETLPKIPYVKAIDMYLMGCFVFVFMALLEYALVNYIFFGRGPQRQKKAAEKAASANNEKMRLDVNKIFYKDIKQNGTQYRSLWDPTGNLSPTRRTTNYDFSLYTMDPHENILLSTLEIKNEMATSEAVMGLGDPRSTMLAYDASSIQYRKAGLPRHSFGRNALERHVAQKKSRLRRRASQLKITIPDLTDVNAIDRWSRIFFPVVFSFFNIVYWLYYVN
Sequence (P18507 40-475 partner): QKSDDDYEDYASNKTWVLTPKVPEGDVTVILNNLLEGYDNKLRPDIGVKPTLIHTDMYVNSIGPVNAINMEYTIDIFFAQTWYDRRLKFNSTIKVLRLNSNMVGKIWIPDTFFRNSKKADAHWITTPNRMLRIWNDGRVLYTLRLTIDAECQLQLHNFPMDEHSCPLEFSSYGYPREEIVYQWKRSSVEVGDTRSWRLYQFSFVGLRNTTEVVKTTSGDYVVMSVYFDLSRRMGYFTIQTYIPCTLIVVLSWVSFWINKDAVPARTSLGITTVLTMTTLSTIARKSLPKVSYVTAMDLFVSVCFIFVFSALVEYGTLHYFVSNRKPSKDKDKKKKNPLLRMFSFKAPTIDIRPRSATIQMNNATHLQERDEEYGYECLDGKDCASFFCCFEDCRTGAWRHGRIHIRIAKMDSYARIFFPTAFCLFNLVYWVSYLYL
ASSAY PROCEDURE: whole-cell patch clamp, potentiation of GABA
PROPERTY MEASURED: pEC50
In textbook form, pEC50 equals minus log to base ten of the concentration in mol/L.

Look up pEC50 for this compound: CC(=O)[C@H]1CC[C@H]2[C@@H]3CC[C@H]4C[C@H](O)CC[C@]4(C)[C@H]3CC[C@]12C [allopregnanolone]
6.73

---

TEST TARGET: GABAA receptor α4β3δ (Homo sapiens, UniProt P28472+P48169)
Sequence (P48169 36-554): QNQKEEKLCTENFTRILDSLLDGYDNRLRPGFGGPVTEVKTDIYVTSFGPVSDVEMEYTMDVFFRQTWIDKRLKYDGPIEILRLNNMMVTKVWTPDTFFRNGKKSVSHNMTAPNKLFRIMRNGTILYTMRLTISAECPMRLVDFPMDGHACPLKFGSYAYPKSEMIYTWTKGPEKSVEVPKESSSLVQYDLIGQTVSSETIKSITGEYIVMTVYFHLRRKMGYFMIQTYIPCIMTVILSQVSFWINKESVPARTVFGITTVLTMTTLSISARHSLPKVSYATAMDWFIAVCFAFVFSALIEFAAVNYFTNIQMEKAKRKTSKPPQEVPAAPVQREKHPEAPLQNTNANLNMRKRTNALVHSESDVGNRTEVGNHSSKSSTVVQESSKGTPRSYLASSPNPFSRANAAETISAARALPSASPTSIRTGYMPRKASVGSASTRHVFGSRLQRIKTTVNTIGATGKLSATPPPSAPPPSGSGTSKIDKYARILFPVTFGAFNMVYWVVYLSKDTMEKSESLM
Sequence (P28472 26-473): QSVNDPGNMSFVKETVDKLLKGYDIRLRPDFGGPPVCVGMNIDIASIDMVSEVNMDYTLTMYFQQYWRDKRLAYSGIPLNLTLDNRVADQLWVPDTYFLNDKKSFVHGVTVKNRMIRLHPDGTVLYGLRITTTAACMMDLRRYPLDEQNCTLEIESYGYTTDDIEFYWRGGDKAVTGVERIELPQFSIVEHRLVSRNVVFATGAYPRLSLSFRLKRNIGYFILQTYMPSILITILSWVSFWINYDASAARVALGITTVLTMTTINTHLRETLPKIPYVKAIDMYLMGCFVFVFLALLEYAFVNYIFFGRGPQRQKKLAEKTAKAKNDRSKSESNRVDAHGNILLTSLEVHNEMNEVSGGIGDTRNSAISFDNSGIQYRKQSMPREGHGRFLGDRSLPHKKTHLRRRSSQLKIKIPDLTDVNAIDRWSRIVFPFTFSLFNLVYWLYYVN
Sequence (O14764 25-452 partner): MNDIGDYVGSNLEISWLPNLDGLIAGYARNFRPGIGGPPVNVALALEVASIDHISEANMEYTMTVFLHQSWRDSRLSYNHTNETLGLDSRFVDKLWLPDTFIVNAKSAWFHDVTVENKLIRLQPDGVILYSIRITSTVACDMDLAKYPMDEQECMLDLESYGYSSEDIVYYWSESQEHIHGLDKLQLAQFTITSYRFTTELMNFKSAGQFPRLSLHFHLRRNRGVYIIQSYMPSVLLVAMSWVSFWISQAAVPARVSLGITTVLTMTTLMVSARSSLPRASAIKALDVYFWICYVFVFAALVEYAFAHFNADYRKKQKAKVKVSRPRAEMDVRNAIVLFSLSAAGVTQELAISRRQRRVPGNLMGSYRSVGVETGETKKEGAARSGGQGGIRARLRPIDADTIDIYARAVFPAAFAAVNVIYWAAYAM
ASSAY PROCEDURE: whole-cell patch clamp, potentiation of GABA
PROPERTY MEASURED: EC50
Hey, just the number and the unit after it is fine.

Looking for the measured EC50 of CC(=O)[C@H]1CC[C@H]2[C@@H]3CC[C@H]4C[C@H](O)CC[C@]4(C)[C@H]3CC[C@]12C , can you help?
80 nM
